test system: 454973-116-R2-J3-PDC spheroids, viability, % test/control; experiment: Anticancer human tumor 454973-116-R2-J3-PDC patient-derived pancreatic carcinoma cell line growth inhibition [GQUAD]; details: second compound 0.1 µM; first compound 0.316 µM; hits give low values; spheroids with HUVEC and MSC;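 further: spheroids exposed to compounds for seven days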
Binary label based on viability, T/C with cut-off 80%: below gives T, not below gives F.

compound="O=c1[nH]cc(F)c(=O)[nH]1 + CN(C)c1ccc(Nc2c3ccc(NC(=O)CCN4CCCC4)cc3nc3cc(NC(=O)CCN4CCCC4)ccc23)cc1" group=F
compound="O=C(c1cc(Cc2n[nH]c(=O)c3ccccc23)ccc1F)N1CCN(C(=O)C2CC2)CC1 + Cc1cnc(CNC(=O)c2c(=O)c3ccc(N4CCCN(C)CC4)nc3n3c2sc2ccccc23)cn1" group=T
compound="COc1ccc([C@@H](O)c2cc(-c3ncnc4cc(N5CCOCC5)ccc34)c(F)cc2Cl)nn1 + Cc1cnc(CNC(=O)c2c(=O)c3ccc(N4CCCN(C)CC4)nc3n3c2sc2ccccc23)cn1" group=T
compound="O=C(NO)c1cnc(N2CCN(S(=O)(=O)c3ccc4ccccc4c3)CC2)nc1 + Cc1cnc(CNC(=O)c2c(=O)c3ccc(N4CCCN(C)CC4)nc3n3c2sc2ccccc23)cn1" group=T
compound="COc1ncnc(C2CC2)c1-c1ncc2cnn(Cc3ccc(-c4nc(C(F)(F)F)cn4C(C)C)cc3)c2n1 + Cc1cnc(CNC(=O)c2c(=O)c3ccc(N4CCCN(C)CC4)nc3n3c2sc2ccccc23)cn1" group=T
compound="Cc1cccc(N(C)C(=O)C2C(O)CCN2c2nc(C)cc(C(F)(F)F)c2C#N)c1 (stereo unspecified) + CN(C)c1ccc(Nc2c3ccc(NC(=O)CCN4CCCC4)cc3nc3cc(NC(=O)CCN4CCCC4)ccc23)cc1" group=F
compound="C=CC(=O)N1CCN(c2nc(=O)n(-c3c(C)ccnc3C(C)C)c3nc(-c4c(O)cccc4F)c(F)cc23)C(C)C1 (stereo unspecified) + Cc1[nH]c2ccc(F)cc2c1-c1nc2c3cccnc3c3ncccc3c2[nH]1" group=F
compound="CCCS(=O)(=O)Nc1ccc(F)c(C(=O)c2c[nH]c3ncc(-c4ccc(Cl)cc4)cc23)c1F + Cc1[nH]c2ccc(F)cc2c1-c1nc2c3cccnc3c3ncccc3c2[nH]1" group=F
compound="CC1COCCN1c1cc(C2(S(C)(=N)=O)CC2)nc(-c2ccnc3[nH]ccc23)n1 (stereo unspecified) + CN(C)c1ccc(Nc2c3ccc(NC(=O)CCN4CCCC4)cc3nc3cc(NC(=O)CCN4CCCC4)ccc23)cc1" group=F
compound="C=CC(=O)N1CCN(c2nc(=O)n(-c3c(C)ccnc3C(C)C)c3nc(-c4c(O)cccc4F)c(F)cc23)C(C)C1 (stereo unspecified) + Cc1cnc(CNC(=O)c2c(=O)c3ccc(N4CCCN(C)CC4)nc3n3c2sc2ccccc23)cn1" group=F
